For each record, write down the corresponding pIC50.
Test system: HCT-15
Procedure details: Antiproliferative activity against human HCT15 cells after 48 hrs by sulforhodamine B assay
Type: functional, cell-based
Conditions used: HCT-15, 48 h
Value format note: pIC50 is -log10 of concentration (mol/L); just state the number.

Item: `COc1ccc([C@H]2OC(=O)[C@@H]3C=C4C(C)(C)CCC[C@]4(C)[C@H]23)cc1` | pIC50: 4.11

Input `CC1(C)CCC[C@@]2(C)C1=C[C@H]1C(=O)O[C@H](c3ccco3)[C@H]12` . Output pIC50: 4.30

// field: pIC50; key: `Cc1ccc([C@H]2OC(=O)[C@@H]3C=C4C(C)(C)CCC[C@]4(C)[C@H]23)cc1` ; value = 4.11

The reported pIC50 of the compound `CC1(C)CCC[C@@]2(C)C1=C[C@H]1C(=O)O[C@H](c3ccccc3)[C@H]12` was 4.12
